target: CYP2D6 (Homo sapiens, UniProt P10635); assay: Inhibition of CYP2D6 (unknown origin) assessed as residual activity at 10 uM relative to control; format: ADME; conditions: read-out: Activity
Sequence (P10635 whole entry): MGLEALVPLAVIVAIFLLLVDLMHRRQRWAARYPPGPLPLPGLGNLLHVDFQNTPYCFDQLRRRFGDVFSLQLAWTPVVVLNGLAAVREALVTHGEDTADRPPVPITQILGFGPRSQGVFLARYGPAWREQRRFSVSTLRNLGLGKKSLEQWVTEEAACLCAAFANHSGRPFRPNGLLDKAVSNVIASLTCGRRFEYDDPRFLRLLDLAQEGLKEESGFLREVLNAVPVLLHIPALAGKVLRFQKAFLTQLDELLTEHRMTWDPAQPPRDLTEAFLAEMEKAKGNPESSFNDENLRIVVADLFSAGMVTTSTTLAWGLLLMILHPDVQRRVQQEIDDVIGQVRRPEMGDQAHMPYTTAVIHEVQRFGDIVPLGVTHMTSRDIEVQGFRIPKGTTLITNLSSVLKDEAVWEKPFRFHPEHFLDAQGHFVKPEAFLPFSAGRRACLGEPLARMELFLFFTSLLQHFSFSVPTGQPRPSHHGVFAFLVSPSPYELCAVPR
READOUT_NAME: activity at 10 µM (%)
Give the value, in units of %, as a plain number.

Please supply the value of reported activity at 10 µM for the item CCCCc1nc(C(C)C)c(CC(=O)OCC)c(=O)n1Cc1ccc(-c2ccccc2-c2noc(=O)[nH]2)cc1
91

###

assay: Tmax in mouse at 10 mg/kg, po; format: ADME, organism-based; settings: in vivo
READOUT_NAME: Tmax (min)
Give the value, in units of min, as a plain number.

Please supply the value of reported Tmax for the item CCCCc1nc(C(C)C)c(CC(=O)OCC)c(=O)n1Cc1ccc(-c2ccccc2-c2noc(=O)[nH]2)cc1
30
